System: ctXPD R323S/R324S (Chaetomium thermophilum)
Assay: fluorescence anisotropy
Conditions: 5 mM Mg2+; no MAT1; ctXPD: 20 mM HEPES pH 7.5, 50 mM KCl, 5 mM MgCl2, 1 mM TCEP, 5 nM DNA, room temperature; ctDDX11: 25 mM HEPES pH 7.5, 25 mM KCl, 1 mM MgSO4, 1 mM TCEP, 2 nM …
MEASUREMENT_NAME: pKd
// field semantics: pKd = negative decimal log of concentration (mol/L)

INPUT: What pKd appears in the records for this sequence with ctXPD R323S/R324S (Chaetomium thermophilum)? AGCTACCATGCCTGCACGAATTAAGCAATTCGTAATCATGGTCATAGC / GCTATGACCATGATTACGAATTGCTTGGAATCCTGACGAACTGTAG [splayed duplex DNA]
OUTPUT: 7.29

* * *

Tested on: ctXPD K369E (Chaetomium thermophilum)
Test: fluorescence anisotropy
Settings: 5 mM Mg2+; no MAT1; text gives 54 nM; ctXPD: 20 mM HEPES pH 7.5, 50 mM KCl, 5 mM MgCl2, 1 mM TCEP, 5 nM DNA, room temperature; ctDDX11: 25 mM HEPES pH 7.5, 25 mM KCl, 1 mM MgSO4, 1 mM TCEP, 2 nM …
MEASUREMENT_NAME: Kd (nM)
Write the answer as a number in nM, unit excluded.

INPUT: # get_value(readout='Kd', item= AGCTACCATGCCTGCACGAATTAAGCAATTCGTAATCATGGTCATAGC / GCTATGACCATGATTACGAATTGCTTGGAATCCTGACGAACTGTAG [splayed duplex DNA] )
OUTPUT: 55

* * *

System: ctXPD R324E (Chaetomium thermophilum)
Assay: fluorescence anisotropy
Conditions: 5 mM Mg2+; no MAT1; ctXPD: 20 mM HEPES pH 7.5, 50 mM KCl, 5 mM MgCl2, 1 mM TCEP, 5 nM DNA, room temperature; ctDDX11: 25 mM HEPES pH 7.5, 25 mM KCl, 1 mM MgSO4, 1 mM TCEP, 2 nM …
MEASUREMENT_NAME: Kd (nM)
Write the answer as a number in nM, unit excluded.

INPUT: # get_value(readout='Kd', item= AGCTACCATGCCTGCACGAATTAAGCAATTCGTAATCATGGTCATAGC / GCTATGACCATGATTACGAATTGCTTGGAATCCTGACGAACTGTAG [splayed duplex DNA] )
OUTPUT: 72

* * *

Test system: ctDDX11 wild type (Chaetomium thermophilum)
Assay: fluorescence anisotropy
Conditions: 1 mM MgSO4, 25 mM HEPES pH 7.5, 25 mM KCl, 2 nM DNA, ctXPD: 20 mM HEPES pH 7.5, 50 mM KCl, 5 mM MgCl2, 1 mM TCEP, 5 nM DNA, room temperature, ctDDX11: 25 mM HEPES pH 7.5, 25 mM KCl, 1 mM MgSO4, 1 mM TCEP
MEASUREMENT_NAME: Kd (nM)
Write the answer as a number in nM, unit excluded.

INPUT: # get_value(readout='Kd', item= AGCTACCATGCCTGCACGAATTAAGCAATTCGTAATCATGGTCATAGC / GCTATGACCATGATTACGAATTGCTTGGAATCCTGACGAACTGTAG [splayed duplex DNA] )
OUTPUT: 30.8

* * *

Test system: ctXPD R323S/R324S (Chaetomium thermophilum)
Test: fluorescence anisotropy
Conditions: 5 mM Mg2+; equimolar ctMAT1Lock present (not bound by variant); ctXPD: 20 mM HEPES pH 7.5, 50 mM KCl, 5 mM MgCl2, 1 mM TCEP, 5 nM DNA, room temperature; ctDDX11: 25 mM HEPES pH 7.5, 25 mM KCl, 1 mM MgSO4, 1 mM TCEP, 2 nM …
MEASUREMENT_NAME: pKd
// field semantics: pKd = negative decimal log of concentration (mol/L)

INPUT: What pKd appears in the records for this sequence with ctXPD R323S/R324S (Chaetomium thermophilum)? AGCTACCATGCCTGCACGAATTAAGCAATTCGTAATCATGGTCATAGC / GCTATGACCATGATTACGAATTGCTTGGAATCCTGACGAACTGTAG [splayed duplex DNA]
OUTPUT: 7.51

* * *

System: ctXPD R323E (Chaetomium thermophilum)
Assay: fluorescence anisotropy
Settings: 5 mM Mg2+; no MAT1; ctXPD: 20 mM HEPES pH 7.5, 50 mM KCl, 5 mM MgCl2, 1 mM TCEP, 5 nM DNA, room temperature; ctDDX11: 25 mM HEPES pH 7.5, 25 mM KCl, 1 mM MgSO4, 1 mM TCEP, 2 nM …
MEASUREMENT_NAME: pKd
// field semantics: pKd = negative decimal log of concentration (mol/L)

INPUT: # get_value(readout='pKd', item= AGCTACCATGCCTGCACGAATTAAGCAATTCGTAATCATGGTCATAGC / GCTATGACCATGATTACGAATTGCTTGGAATCCTGACGAACTGTAG [splayed duplex DNA] )
OUTPUT: 7.39

* * *

System: ctDDX11 K427E/K428E (Chaetomium thermophilum)
Assay: fluorescence anisotropy
Details: 1 mM MgSO4, 25 mM HEPES pH 7.5, 25 mM KCl, 2 nM DNA, ctXPD: 20 mM HEPES pH 7.5, 50 mM KCl, 5 mM MgCl2, 1 mM TCEP, 5 nM DNA, room temperature, ctDDX11: 25 mM HEPES pH 7.5, 25 mM KCl, 1 mM MgSO4, 1 mM TCEP
MEASUREMENT_NAME: pKd
// field semantics: pKd = negative decimal log of concentration (mol/L)

INPUT: # get_value(readout='pKd', item= AGCTACCATGCCTGCACGAATTAAGCAATTCGTAATCATGGTCATAGC / GCTATGACCATGATTACGAATTGCTTGGAATCCTGACGAACTGTAG [splayed duplex DNA] )
OUTPUT: 7.29

* * *

Test system: ctXPD R333S/R334S (Chaetomium thermophilum)
Assay: fluorescence anisotropy
Conditions: 5 mM Mg2+; equimolar ctMAT1Lock present (not bound by variant); ctXPD: 20 mM HEPES pH 7.5, 50 mM KCl, 5 mM MgCl2, 1 mM TCEP, 5 nM DNA, room temperature; ctDDX11: 25 mM HEPES pH 7.5, 25 mM KCl, 1 mM MgSO4, 1 mM TCEP, 2 nM …
MEASUREMENT_NAME: Kd (nM)
Write the answer as a number in nM, unit excluded.

INPUT: # get_value(readout='Kd', item= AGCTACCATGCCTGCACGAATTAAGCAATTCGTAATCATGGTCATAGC / GCTATGACCATGATTACGAATTGCTTGGAATCCTGACGAACTGTAG [splayed duplex DNA] )
OUTPUT: 128

* * *

Test system: ctXPD wild type (Chaetomium thermophilum)
Test: fluorescence anisotropy
Details: 5 mM Mg2+; no MAT1; ctXPD: 20 mM HEPES pH 7.5, 50 mM KCl, 5 mM MgCl2, 1 mM TCEP, 5 nM DNA, room temperature; ctDDX11: 25 mM HEPES pH 7.5, 25 mM KCl, 1 mM MgSO4, 1 mM TCEP, 2 nM …
MEASUREMENT_NAME: Kd (nM)
Write the answer as a number in nM, unit excluded.

INPUT: # get_value(readout='Kd', item= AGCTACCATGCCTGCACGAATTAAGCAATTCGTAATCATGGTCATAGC / GCTATGACCATGATTACGAATTGCTTGGAATCCTGACGAACTGTAG [splayed duplex DNA] )
OUTPUT: 66
